The following compounds are shown together with reported melting point values.

Below, 2 compounds whose answers are already recorded.
| compound | measured-endpoint | measured-value |
| --- | --- | --- |
| NS(=O)(=O)c1ccc(C(=O)NCc2ccccc2)s1 | melting point | 203 °C |
| CS(=O)(=O)c1ccc(C(CC2CCCC2)c2nc(Cl)c(C(=O)C3CC3)[nH]2)cc1 (stereo not given) | melting point | 95 to 97 °C |

Enquiry: Which melting point value belongs to CCOC(=O)c1cc(-n2c(=O)[nH]c3c(c2=O)CCC3)ccc1Cl ?
Return: 178 to 180 °C

Enquiry: Which value of melting point has been reported for COc1ccc(C(=O)NCCc2cccs2)cc1 in the records?
Return: 109 to 111 °C

Enquiry: Fill in: melting point of NS(=O)(=O)NC[C@H]1COc2cc(Cl)ccc2O1 is ___
Return: 99 to 100 °C

---

measured-endpoint: melting point

// solved cases for melting point follow
| molecule | measured-value |
| --- | --- |
| Cc1cc(-c2noc(C(F)(F)F)n2)cc(C)c1OCCCc1ccc(Cl)nc1 | 89 to 91 °C |
| CC(n1ccnc1)C1(c2ccc(Cl)cc2Cl)SCCS1 (stereo not given) | 142 °C |
| O=C(OCc1ccncc1)c1cc2c(=O)n(Cc3ccccc3)c(=O)[nH]c2s1 | 248 to 250 °C |

Enquiry: Return reported melting point; argument: Cn1nnc2cccc(S(N)(=O)=O)c21
Return: 198 to 200 °C

Enquiry: Consider the molecule CCCCOc1cc(CCS(N)(=O)=O)n(Cc2ccc(Cl)cc2Cl)n1 and give its measured melting point.
Return: 134 to 136 °C

---

Below: a set of entries, each annotated with reported melting point.

Enquiry: Quick one: melting point of O=C(COc1ccccc1)N[C@H]1C(=O)N[C@H]1C(=O)O (relative stereo) ?
Return: 150 to 151 °C

Enquiry: If you can, please state the reported melting point value of CC(C)C(NC(=O)CN1C=Cc2c([nH]c3c(C(=O)O)cccc23)C1)C(=O)C(F)(F)F (stereo unspecified) .
Return: 260 to 262 °C

Enquiry: # melting point lookup, item CC(=O)OC(C)c1ccc(CCOc2ccc(CC3SC(=O)NC3=O)cc2)nc1 (stereo unspecified)
Return: 143 to 144 °C

Enquiry: Which value of melting point has been reported for CCOCc1nc2c(N)nc3ccc(CCc4ccccc4)cc3c2n1CC(C)(C)O in the records?
Return: 175 to 176 °C

Enquiry: Dear colleague, I am looking for the recorded melting point of the following compound: CCOC(=O)c1c(CN(C)c2ccccn2)nc2cc(OC)c(OC)cc2c1-c1ccc(OC)c(OC)c1
Return: 174 to 175 °C

Enquiry: Look at this compound and give its reported melting point. CSc1cc(C)nc(SC)c1NC(=O)CCCCCCCSc1nc2cccc(C(F)(F)F)c2o1
Return: 115 to 116 °C

Enquiry: Suppose we examine the compound NCC1c2ccccc2CCN1CC(O)CN1CCOCC1 (stereo unspecified) ; what melting point value has been reported?
Return: 138 to 139 °C

---

Below, each entry is listed alongside its reported melting point.

| input-smiles | melting point |
| --- | --- |
| c1ccc(-c2coc3cc4c(cc23)CCC4)cc1 | 43 to 46 °C |
| COc1cc(N2C(=O)c3ccccc3C2=O)c2nccc(C)c2c1Oc1cccc(C(F)(F)F)c1 | 228 to 230 °C |
| CC(C)Oc1ccc(CCCOc2cc(CCC(=O)O)n(C)n2)c(Oc2ncc(C(F)(F)F)cc2Cl)c1 | 88 to 89 °C |
| CCOC(=O)C(=CNc1nnc(C)s1)C(=O)c1cc(F)c(F)cc1F | 147 to 151 °C |
| CC1(C)Nc2c(Cl)cccc2NC1=O | 153 to 156 °C |

Enquiry: # query: melting point of entry COC(=O)CC(=O)C=Cc1cc2ccccc2s1
Return: 105 to 107 °C

---

measured-endpoint: melting point

Reference set (5 entries):
| compound | melting point |
| --- | --- |
| O=C(NC(c1ccccc1)c1cc2ccncc2[nH]1)c1cccnc1 (stereo not given) | 178 to 188 °C |
| Fc1ccc(Cn2c(NC3CCN(CCOc4nc5cccnc5s4)CC3)nc3ccccc32)cc1 | 151 °C |
| CCOC(=O)c1sc(N2CCNC2=O)nc1C(F)(F)F | 185 to 187 °C |
| Cc1nc(N)c2nc(C)n(CCCNC(=O)C(C)C)c2c1C | 178 to 179 °C |
| COc1cccc(-c2nc(N)nc(Nc3ccc(O)cc3)n2)c1 | 93.5 to 94 °C |

Enquiry: Entry CS(=O)(=O)N1CCN([C@@H](CNS(=O)(=O)c2ccc(OCc3ccccc3)cc2)C(=O)NO)CC1 : reported melting point = ?
Return: 165 °C

Enquiry: Please look up its melting point: CSC(C)(C)C=NOC(=O)N(C)SN(C)C
Return: 48 to 50 °C

Enquiry: Entry COc1cc(C(=O)c2ncc3ccc(C(N)=O)cn23)ccc1[N+](=O)[O-] has what melting point?
Return: 289 °C

Enquiry: For CC(C)Cc1ccc2c([N+](=O)[O-])c(O)c(O)cc2c1 , what is its reported melting point?
Return: 105 to 108 °C

Enquiry: // returns reported melting point for input O=C(O)c1ccc(=O)n(CCNC(=O)c2ccncc2)c1
Return: > 300 °C

Enquiry: Return reported melting point; argument: N=CN1C(C(=O)NN)C(Sc2ccccc2)=CC(=O)N1c1ccccc1 (stereo not given)
Return: 236 to 238 °C

Enquiry: I am curious: what melting point value has been reported for N#CC=C1CCN(c2ccc(N3C[C@H](CNC(=O)CC#N)OC3=O)cc2F)CC1 ?
Return: 150 to 152 °C

Enquiry: Fill in the blank: the reported melting point of CCCSc1nc(-c2ccc(Cl)cc2)c(CCC(=O)O)o1 is ____.
Return: 128 to 129 °C

Enquiry: GET /values?readout=melting point&item= Cc1ccc(C(=C(C=CC=O)c2nnnn2C)c2ccc(C)cc2F)c(F)c1
Return: 88 to 108 °C

---

measured-endpoint: melting point

The following molecules have reported results that may help.
| molecule | melting point |
| --- | --- |
| C#CCOc1cc2c(cc1OC)C(=C(C#N)C(=O)OCC)CC2(C)C | 132 to 136 °C |
| O=C(Nc1ccccc1)N1CCC(C(Nc2ccc(F)cc2)c2ccc(F)cc2)CC1 (stereo not drawn) | 96 to 101 °C |
| Cc1c(O)ccc2oc(-c3ccc(O)cc3)cc12 | 221 to 222 °C |
| Fc1ccc(Nc2ncnc3cnc(OC4CCOC4)nc23)cc1Cl (stereo not drawn) | 163 to 165 °C |

Enquiry: Query (molecule): CCCc1nc2c(N)nc3ccccc3c2n1CCCCCCCCCCCC(=O)NC ; field requested: melting point
Return: 135 to 137 °C

---

measured-endpoint: melting point

Past entries and their recorded results:
| compound | melting point |
| --- | --- |
| CCOC(=O)CN1CCC(CNc2ccc(Cl)cc2C(=O)Nc2ccc(Cl)cn2)CC1 | 61 to 63 °C |
| COC1(C)CSC2C(NC(=O)Cc3ccccc3)C(=O)N2C1C(=O)OCC(Cl)(Cl)Cl (centres undefined) | 132 to 133 °C |
| Nc1ccccc1CCc1ccccn1 | 59 to 61 °C |

Enquiry: Could you share which melting point value was measured for CC(C)Oc1cccc(-n2c(NN)nc3ccccc3c2=O)c1 ?
Return: 158 to 160 °C

---

measured-endpoint: melting point

The cases that follow already have their melting point on record.
| compound | measured-value |
| --- | --- |
| CS(=O)(=O)N(Cc1ccc(Cl)cc1)CC(O)(Cn1cncn1)c1ccc(Cl)cc1Cl (configuration not stated) | 121 to 122 °C |
| O=C1Nc2ncccc2N2CCNCC12 (configuration not stated) | 315 to 319 °C |
| CCCC1(Cl)Cc2cc(OCC(=O)O)c(Cl)c(Cl)c2C1=O (configuration not stated) | 185 to 187 °C |
| CCN(CC)C(=O)c1cc(-c2cccc([N+](=O)[O-])c2)c2sccc2c1 | 106 °C |
| CCN1C(=O)C(=O)N(c2cc(F)ccc2C)C1=S | 152 to 153 °C |
| c1ccc(C2COc3cccc4c5c(OCCN6CCNCC6)cccc5n2c34)cc1 (configuration not stated) | 72 °C |
| Cc1cccc(C)c1Sc1cc(C(C)(C)C)cc(C(C)(C)C)c1O | 101 to 102 °C |
| CCCCNc1c([N+](=O)[O-])cc(C(=O)O)cc1S(N)(=O)=O | 192 °C |
| O=S1(=O)N=C(O)C(O)=N1 | 171 to 172 °C |
| COC(=O)c1c(NCc2ccc(OC)c(Cl)c2)nc(N2CCC(O)CC2)nc1N1CCn2ccnc2C1 | 191 to 194 °C |

Enquiry: Name the recorded melting point for Cc1cc(NNC(=O)OC(C)(C)C)nnc1-c1ccc(C#N)cc1 .
Return: 169 to 171 °C

Enquiry: Suppose we examine the compound N#Cc1ccc(C(=C2C3CC4CC(C3)CC2C4)c2nc[nH]n2)cc1 ; what melting point value has been reported?
Return: 105 °C

Enquiry: melting point lookup needed for CC(C(=O)O)c1ccc(CC2CCCCC2O)c(Cl)c1 (configuration not stated) , thanks.
Return: 123 to 127 °C

Enquiry: Can you look up the measured melting point of CCCC(=O)c1cnc2c(C)cccc2c1Nc1c(C)cccc1C for me?
Return: 100 to 101 °C
